- Test system: ABC-1
- protocol_description: relative viability (nuclei count vs DMSO), 5 days (fraction); higher = more cells survive
- measurement_setup: first compound 4 µM
// boundary case: relative viability equal to 0.5 maps to false (0); strictly smaller maps to true (1)

Query: Strictly below 0.5 in relative viability? Cc1sc2c(c1C)C(c1ccc(Cl)cc1)=N[C@@H](CC(=O)OC(C)(C)C)c1nnc(C)n1-2 [JQ1] + CS(=O)(=O)CCNCc1ccc(-c2ccc3ncnc(Nc4ccc(OCc5cccc(F)c5)c(Cl)c4)c3c2)o1 [Lapatinib] (partner 2 µM)
Reply: false (0)

Query: Strictly below 0.5 in relative viability? Cc1sc2c(c1C)C(c1ccc(Cl)cc1)=N[C@@H](CC(=O)OC(C)(C)C)c1nnc(C)n1-2 [JQ1] + Cc1nc(Nc2ncc(C(=O)Nc3c(C)cccc3Cl)s2)cc(N2CCN(CCO)CC2)n1 [Dasatinib] (partner 0.075 µM)
Reply: true (1)

Query: Strictly below 0.5 in relative viability? Cc1sc2c(c1C)C(c1ccc(Cl)cc1)=N[C@@H](CC(=O)OC(C)(C)C)c1nnc(C)n1-2 [JQ1] + NC(=O)Nc1cc(-c2cccc(F)c2)sc1C(=O)N[C@H]1CCCNC1 [AZD7762] (partner 0.2 µM)
Reply: false (0)

Query: Strictly below 0.5 in relative viability? Cc1sc2c(c1C)C(c1ccc(Cl)cc1)=N[C@@H](CC(=O)OC(C)(C)C)c1nnc(C)n1-2 [JQ1] + N=C(N)NC(=N)NCCc1ccccc1 [Phenformin] (partner 250 µM)
Reply: true (1)

Query: Strictly below 0.5 in relative viability? Cc1sc2c(c1C)C(c1ccc(Cl)cc1)=N[C@@H](CC(=O)OC(C)(C)C)c1nnc(C)n1-2 [JQ1] + Cc1cc(Nc2cc(N3CCN(C)CC3)nc(Sc3ccc(NC(=O)C4CC4)cc3)n2)n[nH]1 [Tozasertib] (partner 0.1 µM)
Reply: true (1)

Data credit: the supplement of paper PMC10307832
